So I've got a bunch of compounds here, and I need their SAR Induction (percentage of necrotic area on leaves) values.
Tested on: Tobamovirus tabaci (tobacco mosaic virus, TMV) on Nicotiana tabacum cv. Xanthi
test-details: SAR induction assay: necrotic area after TMV inoculation of sprayed tobacco
Assay type: in vivo
settings: 250 mg/L spray, TMV inoculation after 7 days, read 7 days later; UTC 34.54

Use these answered entries as a reference point.
C[N+](C)(C)CCCl.O=C([O-])c1ccc(Cl)cc1O [[CC][4-ClSal]]	7.85 bcde A %
C[N+](C)(C)CCCl.O=C([O-])c1ccncc1 [[CC][IsoNic]]	21.48 g A %
C[N+](C)(C)CCCl.O=C([O-])c1cc(Cl)nc(Cl)c1 [[CC][Ina]]	12.52 ef A %

Here are 5 compounds. What values of SAR Induction (percentage of necrotic area on leaves) were reported for them?
1. C[N+](C)(C)CCCl.O=C([O-])c1cccnc1 [[CC][Nic]]
2. O=C(O)c1cccnc1
3. C[N+](C)(C)CCCl.O=C([O-])c1cc(Cl)ccc1O [[CC][5-ClSal]]
4. O=C(O)c1cc(Cl)cc(Cl)c1O
5. O=C(O)c1cccc(Cl)c1O

result:
["11.52 def A %", "22.07 g B %", "1.58 a A %", "7.51 bcd A %", "2.59 a AB %"]

Here are 2 compounds. What values of SAR Induction (percentage of necrotic area on leaves) were reported for them?
1. C[N+](C)(C)CCCl.O=C([O-])c1cc(Cl)cc(Cl)c1O [[CC][3,5-ClSal]]
2. O=C(O)c1ccc(Cl)cc1O

result:
1: 4.93 abc A %; 2: 8.68 cde AB %

* * *

Tested on: Tobamovirus tabaci (tobacco mosaic virus, TMV) on Nicotiana tabacum cv. Xanthi
test-details: SAR induction assay: necrotic area after TMV inoculation of sprayed tobacco
Format: in vivo
settings: 125 mg/L, single leaf image
So I've got a bunch of compounds here, and I need their Percentage of necrotic spot coverage (leaf shown in supplementary figure) values.
One number for each entry, in %.

O=C(O)c1cc(Cl)ccc1O	2.98
O=C(O)c1cccc(Cl)c1O	2.62
C[N+](C)(C)CCCl.O=C([O-])c1cc(Cl)ccc1O [[CC][5-ClSal]]	2.28
C[N+](C)(C)CCCl.O=C([O-])c1cccc(Cl)c1O [[CC][3-ClSal]]	0.79

query: What value of Percentage of necrotic spot coverage (leaf shown in supplementary figure) has been recorded for this entry: O=C(O)c1ccccc1O
result: 23.67

* * *

test-details: Solubility tests in representative solvents (Vogel protocol)
settings: 25 °C; Snyder polarity index 0.0
assay-readout: Solubility in Hexane

C[N+](C)(C)CCCl.O=C([O-])c1cc(Cl)nc(Cl)c1 [[CC][Ina]]	− (insoluble)
C[N+](C)(C)CCCl.O=C([O-])c1cc(Cl)cc(Cl)c1O [[CC][3,5-ClSal]]	− (insoluble)
C[N+](C)(C)CCCl.O=C([O-])c1ccc(Cl)cc1O [[CC][4-ClSal]]	− (insoluble)
C[N+](C)(C)CCCl.O=C([O-])c1cc(Cl)ccc1O [[CC][5-ClSal]]	− (insoluble)

Switching to the query record.
query: What value of Solubility in Hexane has been recorded for this entry: C[N+](C)(C)CCCl.O=C([O-])c1cccc(Cl)c1O [[CC][3-ClSal]]
result: − (insoluble)
